Taken from patent US20110319484A1.

Quick list: pIC50 per entry.
target desc: HMG-CoA reductase enzyme (Homo sapiens)
Construct: the oxidation of the NADPH by the catalytic subunit of the HMG-CoA reductase
Sequence (P04035 340-888 limits assumed, species assumed): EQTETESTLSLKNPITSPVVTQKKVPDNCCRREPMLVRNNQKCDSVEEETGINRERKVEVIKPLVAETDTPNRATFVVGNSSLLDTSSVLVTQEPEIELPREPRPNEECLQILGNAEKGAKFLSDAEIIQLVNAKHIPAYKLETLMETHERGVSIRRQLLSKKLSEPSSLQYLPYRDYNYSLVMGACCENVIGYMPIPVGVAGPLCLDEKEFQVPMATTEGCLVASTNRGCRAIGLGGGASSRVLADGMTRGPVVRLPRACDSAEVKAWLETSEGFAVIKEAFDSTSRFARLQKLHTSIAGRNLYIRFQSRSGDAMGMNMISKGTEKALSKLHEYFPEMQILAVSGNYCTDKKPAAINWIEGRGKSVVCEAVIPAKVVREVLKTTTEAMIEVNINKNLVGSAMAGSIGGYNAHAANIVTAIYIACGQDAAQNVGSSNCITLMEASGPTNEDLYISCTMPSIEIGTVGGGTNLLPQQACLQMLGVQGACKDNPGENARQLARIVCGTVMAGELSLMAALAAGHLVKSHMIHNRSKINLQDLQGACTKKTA
protocol details: HMG-CoA reductase inhibition, spectrophotometric NADPH oxidation at 340 nm
Type: biochemical
reported conditions: four independent assays; Trimmed Spearman-Karber method
pIC50: −log10 of the molar value.

mol smiles: CCC(=O)O[C@H]1C[C@@H](C)C=C2C=C[C@H](C)[C@H](CC[C@@H]3C[C@@H](O)CC(=O)O3)[C@H]21
pIC50: 4.39

mol smiles: C[C@H]1C=C2C=C[C@H](C)[C@H](CC[C@@H]3C[C@@H](O)CC(=O)O3)[C@H]2[C@@H](OC(=O)C(C)(C)C)C1
pIC50: 6.06

mol smiles: CC(C)C(=O)O[C@H]1C[C@@H](C)C=C2C=C[C@H](C)[C@H](CC[C@@H]3C[C@@H](O)CC(=O)O3)[C@H]21
pIC50: 4.63
